- ASSAYED_TARGET: B-Raf kinase (SEQ. ID NO: 2) (Homo sapiens (Human), UniProt P15056)
- Sequence (P15056 416-766): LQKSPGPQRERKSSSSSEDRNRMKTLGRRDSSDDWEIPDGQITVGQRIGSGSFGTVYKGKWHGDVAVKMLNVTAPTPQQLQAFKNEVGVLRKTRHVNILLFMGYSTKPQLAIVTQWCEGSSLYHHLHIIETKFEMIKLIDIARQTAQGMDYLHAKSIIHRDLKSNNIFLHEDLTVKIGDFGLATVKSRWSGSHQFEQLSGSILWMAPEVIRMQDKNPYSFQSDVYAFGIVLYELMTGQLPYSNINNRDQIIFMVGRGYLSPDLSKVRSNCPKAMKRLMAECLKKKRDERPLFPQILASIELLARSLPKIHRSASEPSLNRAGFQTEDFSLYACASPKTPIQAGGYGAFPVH
- TEST_NAME: Biochemical Assay for B-Raf (1)
- EXPERIMENTAL_SETUP: Table J, assay version (1); read-out: BRAF (1) IC50
pIC50: −log10 of the molar value.
Quick list: pIC50 per entry.

CNC(=O)c1cc(-c2cnnc(-c3cc(NC(=O)c4ccc(Cl)c(OC)c4)cnc3C)c2)ccn1 [Example 322] :: 5.00 to 6.00
Cc1nc(-c2ccnc(NC(=O)C3CC3)c2)cc(-c2cc(NC(=O)c3ccnc(C4(C#N)CC4)c3)cnc2C)n1 [Example 286] :: ≥ 7.00
CC(=O)Nc1cc(-c2cc(-c3cc(NC(=O)c4ccnc(C(F)(F)F)c4)c(F)cc3C)cc(OC(C)C)n2)ccn1 [Example 10] :: 6.30 to 7.00
COC(=O)Nc1cc(-c2cc(-c3cc(NC(=O)c4ccnc(C(C)(C)F)c4)cnc3C)ccn2)ccn1 [Example 323] :: ≥ 7.00

INPUT: Recorded pIC50 of Cc1ccc(NC(=O)c2ccnc(C(C)(C)C#N)c2)cc1-c1cncc(-c2ccnc(C(=O)NC3CC3)c2)n1 [Example 148] , please.
OUTPUT: 6.30 to 7.00

INPUT: Recorded pIC50 of COCC(=O)Nc1cc(-c2nccc(-c3cc(NC(=O)c4ccnc(C(F)(F)F)c4)ccc3C)n2)ccn1 [Example 137] , please.
OUTPUT: ≥ 7.00

INPUT: Recorded pIC50 of CNC(=O)c1cc(-c2cccc(-c3cc(NC(=O)c4ccnc(C(F)(F)F)c4)cnc3C)c2)ccn1 [Example 73] , please.
OUTPUT: 6.30 to 7.00

INPUT: Recorded pIC50 of Cc1ccc(NC(=O)c2ccnc(C(F)(F)F)c2)cc1-c1ccnc(-c2cncnc2)c1 [Example 45] , please.
OUTPUT: ≥ 7.00

INPUT: Recorded pIC50 of Cc1ccc(NC(=O)c2cccc(C(C)(C)C#N)c2)cc1-c1cccc(-c2cc(NC(=O)C3CC3)ncn2)c1 [Example 174] , please.
OUTPUT: ≥ 7.00
